The measured values listed here are drawn from patent US20220281819A1.

- Assay System: TEAD2 (Homo sapiens, UniProt Q15562)
- Sequence (Q15562 whole entry, species assumed): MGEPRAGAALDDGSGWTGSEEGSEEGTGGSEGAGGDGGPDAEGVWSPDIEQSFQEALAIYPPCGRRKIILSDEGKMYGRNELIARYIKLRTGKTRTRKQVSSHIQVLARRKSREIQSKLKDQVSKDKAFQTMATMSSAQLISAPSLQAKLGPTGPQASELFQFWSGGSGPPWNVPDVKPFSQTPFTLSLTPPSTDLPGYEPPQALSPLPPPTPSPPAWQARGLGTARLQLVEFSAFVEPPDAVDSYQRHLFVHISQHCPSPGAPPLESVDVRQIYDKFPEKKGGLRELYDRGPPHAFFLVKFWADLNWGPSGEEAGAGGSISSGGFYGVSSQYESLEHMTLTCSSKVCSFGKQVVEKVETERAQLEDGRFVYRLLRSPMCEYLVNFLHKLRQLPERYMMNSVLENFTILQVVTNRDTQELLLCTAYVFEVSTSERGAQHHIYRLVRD
- Protocol Text: Lipid HTRF (TR-FRET lipid pocket probe competition), 30 min pre-incubation, TEAD2
- Format: binding
- Condition Set: His-tagged TEAD2, 30 minutes pre-incubation with compound at room temperature; read-out: Lipid HTRF TEAD2 IC50
Listed compounds paired with reported log10 of IC50
The common logarithm of IC50 in µM is what is listed.

These solved cases illustrate the format of a correct answer.
| Compound | log10 of IC50 |
| --- | --- |
| C=CC(=O)Nc1cnc2ccnc(O[C@H]3CC[C@H](C(F)(F)F)CC3)c2c1 | -1.30 |
| C=CC(=O)Nc1cnc(OC)c(/C=C/[C@H]2CC[C@H](C(F)(F)F)CC2)c1 | -0.89 |
| CC(C)c1ccc(-c2cc(NC(=O)C3(CCC(N)=O)CO3)c(C#N)c3c2OCC3)cc1 (single isomer, unassigned) [Enantiomer A from Example 52] | -0.21 |
| C=CC(=O)Nc1cc(/C=C/C2CCC(F)(F)CC2)c2c(c1)CCO2 | -0.70 |
| C=CC(=O)N(CCO)c1cc(/C=C/[C@H]2CC[C@H](C(F)(F)F)CC2)c(OC)cn1 | -0.14 |

**Q:** Form field: reported log10 of IC50 of CC#CC(=O)Nc1cnc(OC)c(/C=C/[C@H]2CC[C@H](C(F)(F)F)CC2)c1
**A:** -0.19

**Q:** Now the same for CC(F)(F)c1ccc(-c2cc(NC(=O)[C@@H]3CO3)c(C#N)c3c2OCC3)cc1
**A:** -1.22

**Q:** Now the same for CC(F)(F)c1ccc(-c2cc(NC(=O)[C@H]3CO3)c(C#N)c3c2OCC3)cc1
**A:** 0.61

**Q:** Now the same for C=CC(=O)Nc1cc(/C=C/[C@H]2CC[C@H](C(F)(F)F)CC2)c(OC)c(C)n1
**A:** -1.05

**Q:** Now the same for C=CC(=O)Nc1cc(-c2ccc(C(C)C)cc2)c(OC)cc1F
**A:** -0.27

**Q:** Now the same for C=CC(=O)Nc1cnc(OC)c(CO[C@H]2CC[C@H](C(F)(F)F)CC2)c1
**A:** -0.27

**Q:** Now the same for C=CC(=O)Nc1cnc(OC)c(/C=C/C2CCC(C(F)(F)F)OC2)c1 (single isomer, unassigned) [Enantiomer A from Example 42]
**A:** -0.01

###

- Assay System: TEAD4 (Homo sapiens)
- Protocol Text: Lipid HTRF (TR-FRET lipid pocket probe competition), 30 min pre-incubation, TEAD4
- Type: binding
- Condition Set: His-tagged TEAD4, 30 minutes pre-incubation with compound at room temperature; read-out: Lipid HTRF TEAD4 IC50
Readout: IC50 (µM)
Give just the numeric value; µM need not be written.

These solved cases illustrate the format of a correct answer.
| Molecule | Assay System | IC50 [µM] |
| --- | --- | --- |
| CC(C)c1ccc(-c2cc(NC(=O)C3(CCC(N)=O)CO3)c(C#N)c3c2OCC3)cc1 (single isomer, unassigned) [Enantiomer A from Example 52] | TEAD4 (Homo sapiens) | 6.3 |
| C=CC(=O)Nc1cc2c(c(-c3ccc(C(C)C)cc3)c1)OCC2 | TEAD4 (Homo sapiens) | 0.2 |
| C=CC(=O)Nc1cc(/C=C/[C@H]2CC[C@H](C(F)(F)F)CC2)c(OC)c(C2CC2)n1 | TEAD4 (Homo sapiens) | 0.4 |
| C=CC(=O)Nc1cnc(OC)c(/C=C/[C@H]2CC[C@H](C(F)(F)F)CC2)c1 | TEAD4 (Homo sapiens) | 0.28 |

Next up:
**Q:** Form field: reported IC50 of C=CC(=O)Nc1cnc(OC)c(CO[C@H]2CC[C@H](C(F)(F)F)CC2)c1
**A:** 1.1

###

- Assay System: TEAD4 (Homo sapiens, UniProt Q15561)
- Sequence (Q15561 whole entry, species assumed): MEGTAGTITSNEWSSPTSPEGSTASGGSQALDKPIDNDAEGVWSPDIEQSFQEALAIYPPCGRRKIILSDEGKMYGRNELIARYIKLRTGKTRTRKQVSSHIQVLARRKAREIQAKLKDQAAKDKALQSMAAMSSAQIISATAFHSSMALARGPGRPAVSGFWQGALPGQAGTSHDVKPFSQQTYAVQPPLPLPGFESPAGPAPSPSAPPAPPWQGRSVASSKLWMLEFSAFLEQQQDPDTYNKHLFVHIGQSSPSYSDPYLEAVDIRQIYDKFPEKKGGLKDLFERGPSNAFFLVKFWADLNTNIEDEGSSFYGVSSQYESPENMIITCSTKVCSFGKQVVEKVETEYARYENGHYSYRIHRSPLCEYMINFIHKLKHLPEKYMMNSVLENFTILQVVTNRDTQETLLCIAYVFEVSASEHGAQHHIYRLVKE
- Protocol Text: Lipid HTRF (TR-FRET lipid pocket probe competition), 30 min pre-incubation, TEAD4
- Format: binding
- Condition Set: His-tagged TEAD4, 30 minutes pre-incubation with compound at room temperature; read-out: Lipid HTRF TEAD4 IC50
pIC50: −log10 of the molar value.
Classify as follows. Reported pIC50 greater than or equal to 6: MET. Reported pIC50 below: NOT MET.

**Q:** Quick check: does C=CC(=O)Nc1cc(/C=C/C2CCC(F)(F)CC2)c(C#N)cn1 [Final product from Example 29] have pIC50 greater than or equal to 6?
**A:** MET

**Q:** Now the same for C=CC(=O)Nc1cc(/C=C/[C@H]2CC[C@H](C(F)(F)F)CC2)c(OC)nn1 [Final product from Example 5]
**A:** MET

**Q:** Now the same for C=CC(=O)Nc1cc(/C=C/[C@H]2CC[C@H](C(F)(F)F)CC2)c(OC)cn1 [Final product from Example 6]
**A:** MET

###

- Assay System: TEAD1 (Homo sapiens)
- Sequence (P28347 whole entry, species assumed): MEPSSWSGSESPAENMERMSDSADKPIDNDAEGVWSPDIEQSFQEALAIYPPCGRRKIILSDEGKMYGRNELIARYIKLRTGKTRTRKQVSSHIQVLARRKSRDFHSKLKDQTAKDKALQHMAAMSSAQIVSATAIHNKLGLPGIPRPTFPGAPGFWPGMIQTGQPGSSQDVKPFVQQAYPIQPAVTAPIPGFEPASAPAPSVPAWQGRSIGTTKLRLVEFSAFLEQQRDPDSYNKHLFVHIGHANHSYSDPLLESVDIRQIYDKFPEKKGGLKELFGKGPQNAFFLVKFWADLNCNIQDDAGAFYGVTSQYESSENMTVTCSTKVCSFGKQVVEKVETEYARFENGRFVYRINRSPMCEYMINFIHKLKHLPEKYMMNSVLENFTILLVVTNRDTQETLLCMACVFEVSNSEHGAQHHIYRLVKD
- Protocol Text: Lipid HTRF (TR-FRET lipid pocket probe competition), 30 min pre-incubation, TEAD1
- Assay type: binding
- Condition Set: Lipid HTRF TEAD1 IC50, His-tagged TEAD1, 30 minutes pre-incubation with compound at room temperature
Readout: IC50 (nM)
Give just the numeric value; nM need not be written.

| Compound | Value |
| --- | --- |
| C=C(CNc1cnc(OC)c(/C=C/[C@H]2CC[C@H](C(F)(F)F)CC2)c1)C(=O)O [Final product from Example 30] | 580 |

**Q:** Item: C=C(CNc1cnc(C#N)c(/C=C/[C@H]2CC[C@H](C(F)(F)F)CC2)c1)C(=O)O [Final product from Example 31] Test system: TEAD1 (Homo sapiens) Read-out: IC50 Value: ?
**A:** 4800

**Q:** Now the same for C=CC(=O)Nc1cc(/C=C/C2CCC(F)(F)CC2)c2c(c1F)CCO2 [Final product from Example 37]
**A:** 50

###

- Assay System: TEAD3 (Homo sapiens)
- Protocol Text: Lipid HTRF (TR-FRET lipid pocket probe competition), 30 min pre-incubation, TEAD3
- Type: binding
- Condition Set: His-tagged TEAD3, 30 minutes pre-incubation with compound at room temperature; read-out: Lipid HTRF TEAD3 IC50
- Procedure: His-tagged TEAD proteins are pre-incubated with TEAD project compounds for 30 minutes at room temperature. Biotinylated lipid pocket probes are then added to the TEAD/Compound mixture and incubated for 60 minutes at room temperature. The lipid pocket probe competes with the test compound for the TEAD lipid pocket until equilibrium is reached. […] The potency of compounds as TEAD lipid pocket binders is determined by IC50 value generated using a non-linear 4 parameter curve fit.
Listed molecules paired with reported pIC50
On this scale, pIC50 is minus log10 of a concentration expressed in M (mol/L).

| Molecule | Assay System | Value |
| --- | --- | --- |
| C=CC(=O)Nc1ccc(OC)c(/C=C/CC2CCCC2)c1 | TEAD3 (Homo sapiens) | 7.22 |
| C=CC(=O)Nc1cc(/C=C/c2ccc(Cl)cc2)c2c(c1)CCO2 | TEAD3 (Homo sapiens) | 5.28 |
| CC#CC(=O)Nc1cnc(OC)c(/C=C/[C@H]2CC[C@H](C(F)(F)F)CC2)c1 | TEAD3 (Homo sapiens) | 4.74 |
| C=CC(=O)Nc1cc(/C=C/C2CCC(F)(F)CC2)c2c(c1)CCO2 | TEAD3 (Homo sapiens) | 6.11 |
| C=CC(=O)N(CCO)c1cc(/C=C/[C@H]2CC[C@H](C(F)(F)F)CC2)c(OC)cn1 | TEAD3 (Homo sapiens) | 5.39 |
| C=CC(=O)Nc1cc(/C=C/[C@H]2CC[C@H](C(F)(F)F)CC2)c(OC)nc1C#N | TEAD3 (Homo sapiens) | 6.48 |

**Q:** Form field: reported pIC50 of C=CC(=O)Nc1cnc2cccc(O[C@H]3CC[C@H](C(F)(F)F)CC3)c2c1
**A:** 7.05

###

- Assay System: TEAD3 (Homo sapiens, UniProt Q99594)
- Sequence (Q99594 whole entry, species assumed): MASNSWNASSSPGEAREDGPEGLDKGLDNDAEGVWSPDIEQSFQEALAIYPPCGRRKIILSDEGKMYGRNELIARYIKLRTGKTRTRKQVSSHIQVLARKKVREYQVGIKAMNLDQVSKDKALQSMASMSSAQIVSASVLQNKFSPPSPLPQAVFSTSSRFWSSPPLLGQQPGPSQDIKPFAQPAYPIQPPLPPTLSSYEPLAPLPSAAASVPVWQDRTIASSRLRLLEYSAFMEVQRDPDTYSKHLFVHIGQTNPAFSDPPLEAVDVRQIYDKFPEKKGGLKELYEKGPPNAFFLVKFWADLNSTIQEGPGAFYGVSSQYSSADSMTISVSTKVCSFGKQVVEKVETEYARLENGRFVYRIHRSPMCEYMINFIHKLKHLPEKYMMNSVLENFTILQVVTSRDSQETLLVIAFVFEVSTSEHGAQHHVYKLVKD
- Protocol Text: Lipid HTRF (TR-FRET lipid pocket probe competition), 30 min pre-incubation, TEAD3
- Assay type: binding
- Condition Set: His-tagged TEAD3, 30 minutes pre-incubation with compound at room temperature; read-out: Lipid HTRF TEAD3 IC50
Readout: log10 of IC50 (log10 of the value in nM)
The common logarithm of IC50 in nM is what is listed.

These solved cases illustrate the format of a correct answer.
| Compound | Assay System | Readout | Value |
| --- | --- | --- | --- |
| C=CC(=O)Nc1cc2c(c(-c3ccc(C(C)C)cc3)c1)OCC2 [Final product from Example 33] | TEAD3 (Homo sapiens, UniProt Q99594) | log10 of IC50 | 3.41 |
| C=CC(=O)Nc1cnc(OC)c(/C=C/C2CC(F)(F)C2)c1 [Final product from Example 19] | TEAD3 (Homo sapiens, UniProt Q99594) | log10 of IC50 | 3.50 |
| C=CC(=O)Nc1cnc(OC)c(/C=C/[C@H]2CC[C@H](C(F)(F)F)CC2)c1 [Final product from Example 2] | TEAD3 (Homo sapiens, UniProt Q99594) | log10 of IC50 | 3.05 |

Next up:
**Q:** Form field: reported log10 of IC50 of C=CC(=O)Nc1cc(/C=C/C2CCC(F)(F)CC2)c2c(c1)CC(C)O2 (single isomer, unassigned) [Enantiomer C from Example 35]
**A:** 2.34
